- targetOrTestSystem: GST-RORγ (Homo sapiens, UniProt P51449)
- Sequence (P51449 269-508 limits assumed): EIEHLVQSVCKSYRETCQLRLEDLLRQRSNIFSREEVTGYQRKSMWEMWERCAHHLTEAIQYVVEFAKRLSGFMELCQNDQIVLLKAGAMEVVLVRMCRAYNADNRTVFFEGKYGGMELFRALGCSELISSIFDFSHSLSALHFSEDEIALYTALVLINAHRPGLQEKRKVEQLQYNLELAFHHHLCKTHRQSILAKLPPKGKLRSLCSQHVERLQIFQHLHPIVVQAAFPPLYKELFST
# IC50 values compiled below
Number first, unit second: that is the form wanted.

OC(c1ccc(-c2ccc(CN3CCN(Cc4ccncc4)CC3)c(F)c2)cc1)(C(F)(F)F)C(F)(F)F [Compound 98]    1500 nM
Cc1cc(-c2ccc(C(O)(C(F)(F)F)C(F)(F)F)cc2)ccc1CN1CCN(Cc2ccncc2)CC1 [Compound 94]    230 nM

We next turn to a different compound, shown below.
Query :: Recorded IC50 of O=C(c1ccc(-c2ccc(C(O)(C(F)(F)F)C(F)(F)F)cc2)cc1)N1CCN(Cc2ccncc2)CC1 [Compound 100] , please.
Result :: 1700 nM
